Listed below: log10(MIC90) values for each entry.
System: Mycobacterium tuberculosis
Assay Details: Antimycobacterial activity against Mycobacterium tuberculosis H37Rv ATCC 27294 culture in GAST media after 7 days by microplate alamar blue assay
Assay type: functional
Condition Description: H37Rv ATCC 27294, 168 h
Heads up: the numbers are on a log10 scale; they represent MIC90 in µM.

Example entries and their recorded answers appear below.
| Compound | Recorded Metric | Measured Value |
| --- | --- | --- |
| CCOC(=O)c1c(-c2ccccc2)nc2cc(C)ccn12 | log10(MIC90) | 1.85 |
| CCCCCCNC(=O)c1coc(-c2ccccc2)n1 | log10(MIC90) | 1.26 |

Entry under review: CCOC(=O)c1csc(-c2ccc(C)cc2)n1 . Reported log10(MIC90)?
1.90

# log10(MIC90) lookup, item CCOC(=O)c1csc(-c2cccc(Cl)c2Cl)n1
1.59

Endpoint output: log10(MIC90) of COc1ccc(CNC(=O)c2csc(-c3ccccc3)n2)cc1OC . Value?
1.81

---

The entries below are paired with their reported remaining at 0.25 h, 20 µM.
Assay Details: Metabolic stability in Sprague-Dawley rat liver microsomes assessed as compound remaining at 20 uM after 15 mins by LC/MS analysis
Format: ADME, Microsome
Condition Description: read-out: Stability
Respond numerically; units are % and should not be typed.

// solved cases for remaining at 0.25 h, 20 µM follow
| Mol | Value Units | remaining at 0.25 h, 20 µM |
| --- | --- | --- |
| O=C(OCc1ccccc1)c1coc(-c2ccccc2Cl)n1 | % | 7.9 |
| O=C(OCc1ccccc1)c1coc(-c2ccc(F)c([N+](=O)[O-])c2)n1 | % | 10.9 |

Now let's try a different one.
Please give the measured remaining at 0.25 h, 20 µM for this compound: CC(C)(C)c1cccc(C(C)(C)C)c1OC(=O)c1coc(-c2ccccc2)n1
5.3

---

// reported MIC90 for each item listed
Test system: Mycobacterium tuberculosis
Assay Details: Antimycobacterial activity against Mycobacterium tuberculosis H37Rv ATCC 27294 culture in GAST media after 7 days by microplate alamar blue assay
Format: functional
Condition Description: H37Rv ATCC 27294, 168 h

| Mol | Measured Value |
| --- | --- |
| CCCCCCNC(=O)[C@@H]1COC(c2ccc(OC(F)(F)F)cc2)=N1 | > 64 µM |
| COc1ccc(CNC(=O)c2coc(-c3ccccc3)n2)cc1OC | > 128 µM |

Could you tell me which MIC90 is on file for O=C(NC1CCCCC1)[C@@H]1COC(c2ccc(OC(F)(F)F)cc2)=N1 ?
> 64 µM

Quick check: MIC90 of CCOC(=O)c1c(C)nc2ccc(Cl)cn12 ?
> 101 µM

Report MIC90 for CC(C)(C)OC(=O)c1coc(-c2ccccc2)n1 please.
> 64 µM

Which MIC90 is listed for CCOC(=O)c1c(-c2ccccc2)nc2ccc(Cl)cn12 ?
> 128 µM

So what does the record say about MIC90 for CCOC(=O)c1nc(-c2ccccc2)oc1C(F)(F)F ?
> 128 µM

May I ask what MIC90 has been recorded for CCOC(=O)c1cc(-c2ccc([N+](=O)[O-])cc2)[nH]n1 ?
> 128 µM

// MIC90 lookup, key: CCCCCCNC(=O)c1csc(-c2ccccc2)n1
60 µM

Need MIC90 of CCOC(=O)c1nc(-c2ccccc2)sc1C(C)=O , thanks.
124 µM

Reported MIC90, compound O=C(Nc1ccccc1)c1coc(-c2ccccc2)n1 : ____
28 µM

Bench note: what MIC90 did CCOC(=O)c1coc(-c2ccccc2)n1 show?
7.5 µM

---

Test system: Mycobacterium tuberculosis
Assay Details: Antimycobacterial activity against Mycobacterium tuberculosis H37Rv ATCC 27294 culture in GAST media after 7 days by microplate alamar blue assay
Type: functional
Condition Description: H37Rv ATCC 27294, 168 h
Recorded Metric: MIC90 (µM)
Form entry: value (µM) — number only.

| Mol | Assay Target | MIC90 (µM) |
| --- | --- | --- |
| CO[C@H]1/C=C/O[C@@]2(C)Oc3c(C)c(O)c4c(O)c(c(/C=N/N5CCN(C)CC5)c(O)c4c3C2=O)NC(=O)/C(C)=C\C=C\[C@H](C)[C@H](O)[C@@H](C)[C@@H](O)[C@@H](C)[C@H](OC(C)=O)[C@@H]1C | Mycobacterium tuberculosis | 0.2 |

Dear colleague, I am looking for the recorded MIC90 of the following compound: CCOC(=O)c1c(-c2ccccc2)nc2ccc(C)cn12
41

---

System: Mycobacterium tuberculosis
Assay Details: Antimycobacterial activity against Mycobacterium tuberculosis H37Rv ATCC 27294 culture in GAST media after 7 days by microplate alamar blue assay
Assay type: functional
Condition Description: H37Rv ATCC 27294, 168 h
Recorded Metric: MIC90

| Mol | Assay Target | MIC90 |
| --- | --- | --- |
| COc1ccc(CNC(=O)[C@@H]2CSC(c3ccccc3)=N2)cc1OC | Mycobacterium tuberculosis | > 128 µM |
| CCOC(=O)c1cnc2cc(C)c(N)cn12 | Mycobacterium tuberculosis | > 128 µM |

Request the reported MIC90 associated with O=C(OCc1ccccc1)c1cc(-c2ccccc2)[nH]n1
> 64 µM

Ref: ChEMBL document CHEMBL2146467
